study.target: His-SUMO-hTRIM21 PRY-SPRY (Homo sapiens)
Construct: Human TRIM21 PRY-SPRY domain (residues V287-I465, UniProt-ID: P19474); made in house; host or cells: E. coli BL21(DE3)
experiment.summary: SPR fragment screening, human TRIM21 PRY-SPRY
Format: binding
measured.quantity: SPR hTRIM21 (Response)
Answers are plain numbers.

CC(=O)N1C[C@H]2CC[C@H]1c1ccccc12
47.45
OCc1cn(-c2ccc(Cl)cc2)nn1
114.8
Cc1nccn1Cc1cccc(C#N)c1
11.39
NC(=S)Nc1ccccc1OC(F)(F)F
45.42
CN(C)c1noc(C2CCNCC2)n1
41.66
O=C(O)COc1ccc(F)cc1
99.74

Batch request: SPR hTRIM21 (Response) for each of the following molecules.
1. CCn1cc(NC(=O)C2CCC2)cn1
2. O=C(NC1CC1)c1ccc2c(c1)OCO2
3. O=C(CN1CCCC1=O)Nc1nccs1

[21.88, 68.73, 61.55]

The following molecules each have a reported value; give each one's SPR hTRIM21 (Response).
1. O=C(COC(F)F)N1CC2CCCC2C1 (centres unmarked)
2. CN(C)C(=O)N1CCOCC12CCOC2 (centres unmarked)

1: 28.49; 2: 21.66

====

study.target: murine TRIM21 PRY-SPRY domain (Mus musculus, UniProt Q62191)
Construct: mouse TRIM21 PRY-SPRY domain (residues V291-M470, UniProt-ID: Q62191); made in house; host or cells: E. coli BL21(DE3)
experiment.summary: Differential scanning fluorimetry (DSF, ΔTm), mouse TRIM21 PRY-SPRY domain
Assay type: binding
assay.setup: 2 mM compound, 8 μM protein
Please note: Tm-shift mTRIM21 exactly at -0.3 °C is Not met. Only values below -0.3 °C get Met.

Observe how each entry below is paired with its result.
CN1CCOC(CNc2nccs2)C1 (stereo not shown)
Not met
O=C(c1ccco1)N1CCN(C(=O)C2CC2)CC1
Not met
CC(=O)Nc1ccc(CN2CCOCC2)cc1
Not met
CC(O)c1cnn(C2CCCC2)c1 (stereo not shown)
Not met

Dear colleague, could you confirm whether Tm-shift mTRIM21 of `Nc1ccc(S(=O)(=O)Nc2ccccn2)cc1` falls below -0.3 °C? Thanks.
Not met

Follow-up item: CNC(=O)C1CNCCO1 (stereo not shown)
Not met

Would you mind doing `O=C(c1ccc2c(c1)OCO2)N1CCCCCC1` as well?
Met

Lookup CCC(NC)c1ccncc1 (stereo not shown)
Not met

====

study.target: murine TRIM21 PRY-SPRY domain (Mus musculus)
Construct: mouse TRIM21 PRY-SPRY domain (residues V291-M470, UniProt-ID: Q62191); made in house; host or cells: E. coli BL21(DE3)
experiment.summary: Differential scanning fluorimetry (DSF, ΔTm), mouse TRIM21 PRY-SPRY domain
Format: binding
Answer each item with its documented Tm-shift mTRIM21.
Give bare numbers, in °C.

O=C(COC(F)F)N1CC2CCCC2C1 (centres unmarked)
0
O=C(NC1CC1)c1cnn2cccnc12
-0.3
CNS(=O)(=O)Cc1cc(C)on1
-0.2
O=C(O)COCc1ccccc1
-0.3
COC1CN(S(=O)(=O)N2CCCC2)C1
-0.1
CC(=O)N1C[C@H]2CC[C@H]1c1ccccc12
-0.7
Cl.O=C(c1cn[nH]c1)N1CCCC1
-0.3
CS(=O)(=O)NCC1CCNCC1
0.2

Batch lookup, Tm-shift mTRIM21 per entry.
1. CN(C)c1noc(C2CCNCC2)n1
2. O=C(NC1CC1)c1ccc2c(c1)OCO2
3. NC(=S)Nc1ccccc1OC(F)(F)F
4. CCC(=O)Nc1nc(C)cs1
5. CCOc1ccccc1N1CCNCC1.Cl
6. CN(CC(=O)N1CCCCC1)S(C)(=O)=O
7. O=C(CN1CCCC1=O)Nc1nccs1
8. O=C(O)COc1ccc(F)cc1

1. 0
2. -0.3
3. -0.4
4. -0.5
5. -0.1
6. -0.1
7. -0.4
8. -0.2

Batch request: Tm-shift mTRIM21 for each of the following compounds.
1. CCn1cc(NC(=O)C2CCC2)cn1
2. CN(C)C(=O)c1ccc2c(c1)CCCN2
3. CN(C)C(=O)N1CCOCC12CCOC2 (centres unmarked)
4. Cc1nccn1Cc1cccc(C#N)c1

-0.4
-0.2
0
-0.3

====

study.target: murine TRIM21 PRY-SPRY domain (Mus musculus, UniProt Q62191)
Construct: mouse TRIM21 PRY-SPRY domain (residues V291-M470, UniProt-ID: Q62191); made in house; host or cells: E. coli BL21(DE3)
experiment.summary: Differential scanning fluorimetry (DSF, ΔTm), mouse TRIM21 PRY-SPRY domain
Assay type: binding
assay.setup: 2 mM compound, 8 μM protein
measured.quantity: Tm-shift mTRIM21 (°C)
One number for each entry, in °C.

Please review the entries below; each comes with its answer.
NC(=O)N1CCN(C(=O)c2ccco2)CC1 [Fragment Z198194396]
-0.2
CCc1ncc(CNC)s1 [Fragment Z1267773633]
-0.4
CC(NC(=O)C1CC1)c1cccnc1 (centres unmarked) [Fragment Z220996120]
-0.1
CC(=O)N1Cc2ccc(N)cc2C1 [Fragment Z1354416068]
0

Hi, could you look up Tm-shift mTRIM21 for each item in my list?
1. Cc1cc(N2CCNCC2)nc(C)n1 [Fragment Z274575916]
2. CCc1csc(-c2c[nH]cn2)n1 [Fragment Z1530301542]

1. 0
2. -0.1

====

study.target: His-mTRIM21 PRYSPRY (Mus musculus)
Construct: mouse TRIM21 PRY-SPRY domain (residues V291-M470, UniProt-ID: Q62191); made in house; host or cells: E. coli BL21(DE3)
Sequence (Q62191 291-470): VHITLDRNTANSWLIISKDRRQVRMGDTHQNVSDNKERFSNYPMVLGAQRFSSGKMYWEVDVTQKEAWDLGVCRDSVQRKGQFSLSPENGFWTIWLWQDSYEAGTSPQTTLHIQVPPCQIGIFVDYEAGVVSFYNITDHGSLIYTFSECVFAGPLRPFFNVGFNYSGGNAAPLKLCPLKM
experiment.summary: SPR fragment screening and dose response, mouse TRIM21 PRY-SPRY
Assay type: binding
measured.quantity: SPR mTRIM21 (Response)
Answers are plain numbers.

CN(C)C(=O)N1CCOCC12CCOC2 (stereo not drawn)
24.94

# batch: return SPR mTRIM21 (Response) for each of the 4 compounds below
1. CCOc1ccccc1N1CCNCC1.Cl
2. CC(=O)N1C[C@H]2CC[C@H]1c1ccccc12
3. O=C(O)COc1ccc(F)cc1
4. CN(C)c1noc(C2CCNCC2)n1

1. 98.47
2. 37.47
3. 107.1
4. 84.81

# batch: return SPR mTRIM21 (Response) for each of the 8 compounds below
1. Cc1nccn1Cc1cccc(C#N)c1
2. O=C(NC1CC1)c1ccc2c(c1)OCO2
3. COC1CN(S(=O)(=O)N2CCCC2)C1
4. CNS(=O)(=O)Cc1cc(C)on1
5. CCn1cc(NC(=O)C2CCC2)cn1
6. CCC(=O)Nc1nc(C)cs1
7. O=C(O)COCc1ccccc1
8. O=C(NC1CC1)c1cnn2cccnc12

[30.53, 59.37, 38.32, 42.23, 20.02, 15.6, 63.84, 44.74]

Hi there! I need SPR mTRIM21 (Response) for each item below, if you can.
1. CS(=O)(=O)NCC1CCNCC1
2. O=C(COC(F)F)N1CC2CCCC2C1 (stereo not drawn)
3. Cl.O=C(c1cn[nH]c1)N1CCCC1
4. O=C(CN1CCCC1=O)Nc1nccs1
5. CN(C)C(=O)c1ccc2c(c1)CCCN2
6. CN(CC(=O)N1CCCCC1)S(C)(=O)=O
7. NC(=S)Nc1ccccc1OC(F)(F)F
8. OCc1cn(-c2ccc(Cl)cc2)nn1

[29.2, 46.61, 127.7, 63.39, 51.36, 39.85, 37.66, 169.5]

====

study.target: human TRIM21 PRY-SPRY domain (Homo sapiens, UniProt P19474)
Construct: Human TRIM21 PRY-SPRY domain (residues V287-I465, UniProt-ID: P19474); His6 (N, cleaved yes); SUMO (N, cleaved yes); made in house; host or cells: E. coli BL21(DE3)
Sequence (P19474 287-465): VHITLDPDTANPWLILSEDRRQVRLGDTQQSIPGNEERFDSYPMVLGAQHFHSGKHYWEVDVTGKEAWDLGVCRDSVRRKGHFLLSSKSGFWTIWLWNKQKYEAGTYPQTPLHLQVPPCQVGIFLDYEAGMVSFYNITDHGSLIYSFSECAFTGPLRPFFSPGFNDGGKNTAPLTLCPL
experiment.summary: Differential scanning fluorimetry (DSF, ΔTm), human TRIM21 PRY-SPRY domain
Type: binding
Please note: Tm-Shift hTRIM21 exactly at -0.2 °C is label 0. Only values below -0.2 °C get label 1.

CCn1cc(NC(=O)C2CCC2)cn1
label 1
O=C(CN1CCCC1=O)Nc1nccs1
label 1
CCOc1ccccc1N1CCNCC1.Cl
label 0
COC1CN(S(=O)(=O)N2CCCC2)C1
label 0
Cl.O=C(c1cn[nH]c1)N1CCCC1
label 0
Cc1nccn1Cc1cccc(C#N)c1
label 0

In plain terms, does `O=C(O)COCc1ccccc1` come in under -0.2 °C for Tm-Shift hTRIM21?
label 0

Next up: `O=C(NC1CC1)c1ccc2c(c1)OCO2`
label 1

Now consider `O=C(O)COc1ccc(F)cc1` .
label 0

Subsequent entry: `CS(=O)(=O)NCC1CCNCC1`
label 0

Next up: CN(C)C(=O)N1CCOCC12CCOC2 (centres unmarked)
label 0

Also `CNS(=O)(=O)Cc1cc(C)on1` ?
label 0
